Organism: Rattus norvegicus
test.description: DrugMatrix - Regimen: Daily Repeat
Type: toxicity, organism-based, Sprague-Dawley
Set-up: regimen Daily Repeat, gender Male, age 6-8 weeks
cond: in vivo, po, 0 mg/kg, 72 h, tissue Blood, route oral GAVAGE, dose level Control, time 3 day, vehicle .5 % CMC
Catalogue of MEAN CORPUSCULAR HEMOGLOBIN CONCENTRATION readings, one per entry.
I only need the number, in G/DL, no unit after it.

Entry `C[C@]12CC[C@@H]3c4ccc(O)cc4CC[C@H]3[C@@H]1C[C@@H](O)[C@@H]2O` ; MEAN CORPUSCULAR HEMOGLOBIN CONCENTRATION = 39.4

Entry `CCOc1nc2cccc(C(=O)O)c2n1Cc1ccc(-c2ccccc2-c2nnn[nH]2)cc1` ; MEAN CORPUSCULAR HEMOGLOBIN CONCENTRATION = 39.8

Entry CCC1=C(C)CN(C(=O)NCCc2ccc(S(=O)(=O)NC(=O)N[C@H]3CC[C@H](C)CC3)cc2)C1=O [GLIMEPIRIDE] ; MEAN CORPUSCULAR HEMOGLOBIN CONCENTRATION = 38.98

Entry `C[C@@](Cc1ccc(O)c(O)c1)(NN)C(=O)O.O` ; MEAN CORPUSCULAR HEMOGLOBIN CONCENTRATION = 36.85

====

Species: Rattus norvegicus
test.description: DrugMatrix - Regimen: Daily Repeat
Assay type: toxicity, organism-based, Sprague-Dawley
Design: regimen Daily Repeat, gender Male, age 6-8 weeks
cond: in vivo, po, 0 mg/kg, 120 h, tissue Plasma, route oral GAVAGE, dose level Control, time 5 day, […]
Catalogue of LACTATE DEHYDROGENASE readings, one per entry.
I only need the number, in u/L, no unit after it.

Illustrative cases are given below, each with its answer.
- c1ccoc1: 99.33
- CC(=O)Oc1ccccc1C(=O)O: 91.5
- CCCCC(=O)N(Cc1ccc(-c2ccccc2-c2nnn[nH]2)cc1)[C@H](C(=O)O)C(C)C: 104.83
- CS(=O)(=O)Nc1ccc([N+](=O)[O-])cc1Oc1ccccc1 [NIMESULIDE]: 118
- O=c1c(-c2ccc(O)cc2)coc2cc(O)cc(O)c12: 88.5

Entry CCc1ccc(CCOc2ccc(CC3SC(=O)NC3=O)cc2)nc1 (configuration not stated) ; LACTATE DEHYDROGENASE = 111.67

Entry `CC(C)c1c(C(=O)Nc2ccccc2)c(-c2ccccc2)c(-c2ccc(F)cc2)n1CC[C@@H](O)C[C@@H](O)CC(=O)O` ; LACTATE DEHYDROGENASE = 88.5

====

Organism: Rattus norvegicus
test.description: DrugMatrix - Regimen: Daily Repeat
Assay type: toxicity, organism-based, Sprague-Dawley
Set-up: regimen Daily Repeat, gender Male, age 6-8 weeks
cond: in vivo, iv, 0 mg/kg, 72 h, tissue Plasma, dose level Control, time 3 day, vehicle 100 % SALINE
quantity.measured: CREATININE (mg/dL)
I only need the number, in mg/dL, no unit after it.

Illustrative cases are given below, each with its answer.
• N=C(N)c1ccc(OCCCCCOc2ccc(C(=N)N)cc2)cc1 = 0.19
• O=C(O)P(=O)(O)O = 0.19
• COc1cccc2c1C(=O)c1c(O)c3c(c(O)c1C2=O)C[C@@](O)(C(C)=O)C[C@@H]3O[C@H]1C[C@H](N)[C@H](O)[C@H](C)O1 = 0.2

Entry `O=c1[nH]c(=O)n([C@H]2C[C@H](O)[C@@H](CO)O2)cc1F` ; CREATININE = 0.22

Entry C[N+](C)(C)CCOC(=O)CCC(=O)OCC[N+](C)(C)C.[Cl-].[Cl-] [SUCCINYLCHOLINE CHLORIDE] ; CREATININE = 0.19

These measurements were taken from ChEMBL document CHEMBL3885881.
